assay: Rat pharmacokinetic study (IV and PO); assay type: in vivo; settings: blood, PO 10 mg/kg
property name: half-life (h)

Examples from the recorded data:
> print(dat)
                                   compound  observed
1  S=C(Nc1ccc(-c2nc(N3CCOCC3)c3cccn3n2)cc1)Nc1cccnc1 [Example 106]      3.26
2  O=C(Nc1ccc(-c2nc(N3CCOCC3)c3cccn3n2)cc1)Nc1cccnc1 [Example 14]      3.28

[A] O=C(NCCO)Nc1ccc(-c2nc(N3C[C@H]4CC[C@@H](C3)O4)c3cccn3n2)cc1 [Example 127]
[B] CC(C)(C)C(=O)OCCNC(=O)Nc1ccc(-c2nc(N3CCOCC3)c3cccn3n2)cc1 [Example 128]
[C] OCCNC(=S)Nc1ccc(-c2nc(N3C[C@H]4CC[C@@H](C3)O4)c3cccn3n2)cc1 [Example 122]
[D] O=C(NCCO)Nc1ccc(-c2nc(N3CCOCC3)c3cccn3n2)cc1 [Example 29]
Order field: half-life | Direction: descending (largest first) // list labels; follow requested order
C, A, B, D
(C: 4.72 h, A: 3.29 h, B: 1.9 h, D: 1.12 h)

Data provenance is patent US11242346B2.
